# Test system: SK-MEL-5 melanoma
# ASSAY_PROCEDURE: NCI tumour cell line growth inhibition, 48 h
The following compounds are listed with their measured TGI values.

Solved cases (6 shown):
CCN(CC)CCCN1C(=O)c2c(c(C)c3c(oc4ccc(O)cc43)c2C)C1=O
3.12 µM
Cn1c([N+](=O)[O-])cnc1CN1CCN(CCO)CC1
> 100 µM
CO[C@]12CC(=O)C3(C(C[C@H]4CC5CCC6=CC(=O)CC[C@]6(OC(C)=O)C5C[C@@]43C)C1)C1C[C@H]3[C@@H]4CCC5=CC(=O)CC[C@]5(OC(C)=O)[C@H]4CC[C@]3(C)C12 (stereo not given in full)
> 100 µM
CC(=O)NC(C)(C)C1CC=C(C)/C(=N\O)C1 (stereo not given)
> 100 µM
COC(=O)c1cc2cc(-c3ccc(OC)cc3)cnc2[nH]1
15.8 µM
Cc1cccc(NC(=S)Nc2ccc(Cl)cc2)n1
> 100 µM

Then there is this compound:
Lookup: Which TGI value belongs to O=c1[nH]c2cc(Cl)ccc2nc1/C(=N/Nc1ccccc1)C(O)c1ccco1 (stereo not given) ?
Found: > 100 µM

* * *

# System: HS 578T breast
# ASSAY_PROCEDURE: NCI tumour cell line growth inhibition, 48 h
Consider the following compounds and their measured log10 TGI readings.
In plain terms, each number is the log10 of measured TGI in µM.

CC1=C(C(=O)Nc2ccc(Cl)c(Cl)c2)C(c2ccccc2Cl)NC(=S)N1 (configuration not stated)
1.14
COC(=O)c1c2c(c(C)[n+]([O-])c1C)C(=O)C(NCc1cccc(Cl)c1)=CC2=O
0.84
CCSc1ccc2c(c1)N(CCCN1CCN(C)CC1)c1ccccc1S2
0.75
Nc1nc2cc(-c3ccc4ncc(C(=O)N5CCOCC5)n4c3)ccc2o1
1.48

Moving on to the next compound.
Lookup: Data request, read-out log10 TGI, for N#Cc1c(-c2ccccc2)n([O-])c2ccccc2[n+]1=O
Found: 1.85

* * *

# System: U251 CNS
# ASSAY_PROCEDURE: NCI tumour cell line growth inhibition, 48 h
MEASUREMENT_KIND: TGI

Use the examples below as a reference point.
COc1ccc(/C=N/Nc2nc(N)nc(N3CCCC3)c2C#N)cc1
45.2 µM
Nc1ccc2nc3ccc(=O)cc-3n(-c3ccccc3)c2c1
> 100 µM
CO[C@]12CC(=O)C3(C(C[C@H]4CC5CCC6=CC(=O)CC[C@]6(OC(C)=O)C5C[C@@]43C)C1)C1C[C@H]3[C@@H]4CCC5=CC(=O)CC[C@]5(OC(C)=O)[C@H]4CC[C@]3(C)C12 (stereo not given in full)
> 100 µM
NC(=O)c1ncn2c1NCC1OC2C(O)C1O (stereo not given)
> 100 µM

Lookup: For the compound shown here, Cc1cc(I)cc(CN(C)CCN(C)C)c1O , give the reported TGI.
Found: > 100 µM

* * *

# Tested on: OVCAR-5 ovarian
# ASSAY_PROCEDURE: NCI tumour cell line growth inhibition, 48 h; in the data active = GI50 below about 0.43 µM; inactive = the rest
Mark one answer only. Choices: active, inactive

The examples below pair each entry with its known result.
C=CCOC1=CC(=O)c2ccccc2C1=O
inactive
C=C1C(=O)O[C@H]2[C@H]1CC/C(COC(=O)NCc1ccc(Cn3c(=O)sn(CCI)c3=O)cc1)=C\CC[C@@]1(C)O[C@@H]21
inactive

Lookup: Name the outcome recorded for C=C(C)[C@@H]1C/C=C(\COC(=O)[C@H](OC(C)=O)C(NC(=O)c2ccccc2)c2ccccc2)CC[C@H]2O[C@]2(C)CC/C=C(\C)CC1 (stereo partly drawn) in the assay.
Found: inactive

Lookup: Status in this test for CNCCCNc1c2cc(OC)ccc2nc2cccc([N+](=O)[O-])c12 ?
Found: active

Lookup: Recorded test call requested for CCSc1ccc2c(c1)N(CCCN1CCN(C)CC1)c1ccccc1S2
Found: inactive
